Target Desc: DNA gyrase subunit A/DNA gyrase subunit B (Mycobacterium tuberculosis (strain ATCC 25618 / H37Rv), UniProt P9WG45+P9WG47)
Sequence (P9WG45 whole entry): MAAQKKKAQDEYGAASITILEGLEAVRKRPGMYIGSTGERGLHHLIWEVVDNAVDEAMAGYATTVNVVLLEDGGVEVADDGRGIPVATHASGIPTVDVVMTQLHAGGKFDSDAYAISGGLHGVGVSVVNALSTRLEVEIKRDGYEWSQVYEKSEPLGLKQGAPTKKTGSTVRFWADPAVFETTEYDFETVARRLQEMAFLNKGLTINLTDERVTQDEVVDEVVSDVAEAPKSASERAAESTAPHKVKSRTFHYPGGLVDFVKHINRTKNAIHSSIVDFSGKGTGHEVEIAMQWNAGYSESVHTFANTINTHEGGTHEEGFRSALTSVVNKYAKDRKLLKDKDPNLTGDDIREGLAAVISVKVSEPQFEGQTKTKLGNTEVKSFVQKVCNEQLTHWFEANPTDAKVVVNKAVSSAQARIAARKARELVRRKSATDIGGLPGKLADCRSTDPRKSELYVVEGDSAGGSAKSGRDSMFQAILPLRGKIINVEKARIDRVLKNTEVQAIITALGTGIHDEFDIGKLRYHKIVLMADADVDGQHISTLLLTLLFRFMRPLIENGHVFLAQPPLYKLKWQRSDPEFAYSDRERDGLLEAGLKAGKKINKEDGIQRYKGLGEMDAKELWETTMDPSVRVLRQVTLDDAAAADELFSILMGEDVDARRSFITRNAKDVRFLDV
Sequence (P9WG47 whole entry): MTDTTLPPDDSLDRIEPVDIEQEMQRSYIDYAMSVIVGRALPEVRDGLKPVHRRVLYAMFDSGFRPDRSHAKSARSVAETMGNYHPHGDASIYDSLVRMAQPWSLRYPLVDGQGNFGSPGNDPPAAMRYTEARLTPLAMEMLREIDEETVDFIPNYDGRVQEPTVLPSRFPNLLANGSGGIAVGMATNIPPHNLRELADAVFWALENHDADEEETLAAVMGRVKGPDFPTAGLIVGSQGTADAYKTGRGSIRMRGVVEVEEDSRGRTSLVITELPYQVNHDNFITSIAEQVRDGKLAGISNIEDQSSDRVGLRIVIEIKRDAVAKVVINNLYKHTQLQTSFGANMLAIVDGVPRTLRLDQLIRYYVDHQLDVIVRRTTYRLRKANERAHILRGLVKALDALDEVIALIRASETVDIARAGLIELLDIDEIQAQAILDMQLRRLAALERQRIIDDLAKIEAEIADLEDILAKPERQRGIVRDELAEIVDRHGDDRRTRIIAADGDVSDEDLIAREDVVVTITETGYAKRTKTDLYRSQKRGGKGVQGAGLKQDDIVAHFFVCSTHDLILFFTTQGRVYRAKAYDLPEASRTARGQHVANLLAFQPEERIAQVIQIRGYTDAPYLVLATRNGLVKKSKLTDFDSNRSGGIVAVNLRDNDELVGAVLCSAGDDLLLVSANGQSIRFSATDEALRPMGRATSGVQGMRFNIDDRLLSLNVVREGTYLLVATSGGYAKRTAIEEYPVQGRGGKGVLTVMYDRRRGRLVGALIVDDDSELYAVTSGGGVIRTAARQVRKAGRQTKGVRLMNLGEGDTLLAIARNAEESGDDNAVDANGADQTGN
Method Notes: Inhibition of Mycobacterium tuberculosis DNA gyrase assessed as inhibition of DNA supercoiling activity using relaxed pBR322 as substrate incubated for 30 mins by ethidium bromide staining based agarose gel electrophoresis
Consider the following molecules and their measured IC50 readings.
Entry rule: numbers only, all in µM.

Inquiry: Determine from records and report IC50 for O=C1C(=O)N(CCN2CCN(NCc3ccccc3C(F)(F)F)CC2)c2ccc(Cl)cc21
Reply text: 4.9

Inquiry: Determine from records and report IC50 for O=C1C(=O)N(CCN2CCN(NCc3ccccc3C(F)(F)F)CC2)c2ccc(F)cc21
Reply text: 3.6

Inquiry: Determine from records and report IC50 for Cc1ccc2c(c1)C(=O)C(=O)N2CCN1CCN(NCc2ccc(Cl)cc2Cl)CC1
Reply text: 48.9

Inquiry: Determine from records and report IC50 for O=C(Nc1ccc(Cl)cc1)N1CCN(c2nc(=O)c3cc(Cl)ccc3s2)CC1
Reply text: 10.5
